Tested on: Echinochloa crus-galli (ECHCG)
Experiment: Glasshouse assay for herbicidal activity, pre-/post-emergence (percentage phytotoxicity)
Assay type: in vivo
Conditions: Echinochloa crus-galli, pre-emergence, 480 h, Rate 250 g/ha; pre-emergence; visual assessment 20 DAA; 100%=total damage, 0%=no damage; read-out: Pre-emergence herbicidal activity (percentage phytotoxicity), ECHCG PRE
Each entry below carries its reported pest or weed control at 250 g/ha.
measurement.type: pest or weed control at 250 g/ha (%)

1) Cc1cc(-c2ncccc2F)cc(C)c1C1C(=O)CC(CCNC(=O)Nc2ccccn2)C1=O.Cl (stereo not drawn) | 90
2) Cc1cc(C)c(C2C(=O)CC(CCNc3ncc(C(F)(F)F)cc3Cl)C2=O)c(C)c1 (stereo not drawn) | 90
3) Cc1cc(C)c(C2C(=O)CC(CCNC(=O)Nc3cc(C(F)(F)F)ccn3)C2=O)c(C)c1.Cl (stereo not drawn) | 90
